Test system: CMV
Assay: CMV plaque reduction assay in HFF monolayers
Format: cell-based, human cytomegalovirus
Conditions: Human betaherpesvirus 5, 240 h; at least three separate experiments averaged; 10 days incubation; read-out: IC50 (drug concentration required to reduce the number of plaques to 50% of control), mean ± standard deviation
endpoint_name: IC50 (nM)
Please respond with the number in nM and leave the unit unwritten.

Note to self: IC50 of CC1CCC2[C@@H](C)[C@H](NS(N)(=O)=O)OC3O[C@]4(C)CCC1C32OO4 (stereo partly shown) with CMV was 2100

Origin of the recorded values: patent US10111884B2
